Collected set of Ki measured with Translocator protein (Rattus norvegicus) across studies.
readout_type: Ki (nM)

1) CCN(Cc1ccccc1)C(=O)c1nc(-c2ccccc2Cl)c2ccccc2n1: 0.235

[1] CC[C@@H](C)N(C)C(=O)c1nc(-c2ccc(Cl)cc2)c2ccccc2n1
[2] CN(Cc1ccccc1)C(=O)c1nc(-c2ccc(Cl)cc2)c2ccccc2n1
Field: lower recorded Ki (choose 1 or 2 ) Give the label under which the chosen entry appears.
1
(1: 1.57 nM, 2: 6.12 nM)

[1] CCCCN(CC)C(=O)C(=O)c1c(-c2ccccc2)[nH]c2ccc(Cl)cc12
[2] CN(C(=O)Cn1c(=O)n2c3c(cc(-c4ccccc4)cc31)CCC2)c1ccc(Cl)cc1
[3] CCCCCN(CCCCC)C(=O)Cc1coc(-c2ccc(F)cc2)n1
[4] CCN(CC)C(=O)C1Sc2ccccc2-c2c1c1ccccc1n2CCF (stereo not drawn)
Hey, quick one: sort these by Ki, largest value first please. Please respond by ranking the labels in the order requested.
3, 1, 4, 2

[A] CN(C(=O)Cn1c(=O)n2c3c(cc(-c4ccccc4)cc31)CCC2)c1cccnc1
[B] O=C(C(=O)N1CCCCC1)c1c(-c2ccccc2)[nH]c2ccccc12
[C] CCN(CC)C(=O)C1Sc2ccccc2-c2c1c1ccccc1n2CCCCF (racemic)
[D] CCC(C)N(C)C(=O)c1nc(-c2ccccc2)c2ccccc2n1 (stereo not drawn)
[E] O=C(NCCCCNc1ccc([N+](=O)[O-])c2nonc12)C(=O)c1c(-c2ccccc2)[nH]c2ccccc12
Order by Ki, ascending. Please respond by ranking the labels in the order requested.
C, A, D, E, B
(C: 0.52 nM, A: 2.1 nM, D: 3 nM, E: 42 nM, B: 665 nM)

[1] CCCCN(CCCC)C(=O)C(=O)c1c(-c2ccsc2)[nH]c2ccccc12
[2] CCCCCCN(CCCCCC)C(=O)C(=O)c1c(-c2ccc(O)cc2)[nH]c2ccccc12
[3] CCN(Cc1ccccc1)C(=O)C(=O)c1c(-c2ccccc2)[nH]c2ccc([N+](=O)[O-])cc12
[4] CN(C(=O)Cn1c(=O)oc2ccc(-c3ccc(C(F)(F)F)cc3)cc21)c1cccnc1
[5] CCN(CC)C(=O)C1Sc2ccc(O)cc2-c2c1c1ccccc1n2CCF (racemic)
Order by Ki, ascending. Please respond by ranking the labels in the order requested.
5, 1, 2, 4, 3
(5: 0.55 nM, 1: 2.8 nM, 2: 6.3 nM, 4: 9.8 nM, 3: 18.3 nM)
